# run.description: protein stability index of a GFP-peptide fusion (yeast GPS) (PSI 1-4); higher = more stable; sorted into four equal gates, so the index is relative within each strain
# assay.context: doa10∆
So basically every entry gets a class from its protein stability index, ranges being low band: < 2; middle band: ≥ 2 and < 3; high band: ≥ 3

>>> answer_label("KNGLGLNFSTTAPANTT [MED2]")
"middle band"
>>> answer_label("DYSINSRYEPKVFDCGD [PRE7]")
"middle band"
>>> answer_label("LNIDFGSDKQMFTQIYL [YML103C/NUP188]")
"high band"

## Input Which of the defined bands does the recorded protein stability index of LQPFWFRVNNASINTSA [ECM29] sit within?
## Output low band

## Input Which of the defined bands does the recorded protein stability index of IAAGTYGKVYKAKRQIN [SSN3] sit within?
## Output low band

## Input Which of the defined bands does the recorded protein stability index of LQNLQRIIRKKIFIAVV [RRI2] sit within?
## Output low band

## Input Which of the defined bands does the recorded protein stability index of SNAFYSVLRDTLVAQNL [SMC4] sit within?
## Output middle band

## Input Which of the defined bands does the recorded protein stability index of PQEPKHIQEEEEQDVDM [RPC19] sit within?
## Output high band

## Input Which of the defined bands does the recorded protein stability index of AKINEVYNNSKDEYLAQ [NSL1] sit within?
## Output middle band

## Input Which of the defined bands does the recorded protein stability index of PIIIYGTENTERPPLLP [YOR098C/NUP1] sit within?
## Output high band

## Input Which of the defined bands does the recorded protein stability index of TKDLLSKSPSEWQDIIH [CSE2] sit within?
## Output high band

## Input Which of the defined bands does the recorded protein stability index of NKFMSIFLKRKDFTNKN [SRB8] sit within?
## Output middle band

## Input Which of the defined bands does the recorded protein stability index of KKMGVPYAIIKGKARLG [RPL8B] sit within?
## Output middle band

## Input Which of the defined bands does the recorded protein stability index of SQQNIVPNSSDQAELPN [SNF2] sit within?
## Output middle band

## Input Which of the defined bands does the recorded protein stability index of ENIIQRLQAANSMEYTG [CDC53] sit within?
## Output low band

## Input Which of the defined bands does the recorded protein stability index of HPGFGCWLSSVDVNTQK [RPN11] sit within?
## Output low band

## Input Which of the defined bands does the recorded protein stability index of MENNEPAMAMEDLKNFI [SRB8] sit within?
## Output high band

## Input Which of the defined bands does the recorded protein stability index of LVDQGFNYSGKDMLYSG [RET1] sit within?
## Output high band

## Input Which of the defined bands does the recorded protein stability index of GSTLNVSQMVAVVGQQI [RPO31] sit within?
## Output high band

## Input Which of the defined bands does the recorded protein stability index of KSLHEMNERDWRILKED [PRP28] sit within?
## Output high band

## Input Which of the defined bands does the recorded protein stability index of VHPIPDVAFADGGKTLR [YMR129W/POM152] sit within?
## Output middle band

## Input Which of the defined bands does the recorded protein stability index of KSFISKLLGIGDIESLF [SRP54] sit within?
## Output low band

## Input Which of the defined bands does the recorded protein stability index of SLLLSSSFKEDCLSFAP [SSN2] sit within?
## Output middle band

Value source: the supplement of paper PMC9732359
